# MEASUREMENT NOTES: log P determination by HPLC on reversed-phase columns (EEC Directive 79/831 Annex V.A8)
# Format: physicochemical
# RUN CONDITIONS: pH 2.7
# chromatographic logP annotations
Please give only the number in your answer, with no unit.

1. CNC(=O)c1cc(Cl)cc(C)c1NC(=O)c1cc(Cn2nnc3c(Cl)c(Cl)c(Cl)c(Cl)c32)nn1-c1ncccc1Cl [Example 84]: 4.19
2. Cc1cc(Cl)cc(C(=O)NC2CC2)c1NC(=O)c1cc(Cn2ncc(C(F)(F)F)n2)nn1-c1ncccc1Cl [Example 137]: 3.18
3. Cc1cc(I)cc(C(N)=O)c1NC(=O)c1cc(Cn2cc(C(F)(F)C(F)(F)F)nn2)nn1-c1ncccc1Cl [Example 315]: 2.98

# chromatographic logP lookup, item CNC(=O)c1cc(I)cc(C)c1NC(=O)c1cc(Cn2nc(C(F)(F)F)c(C(F)(F)F)n2)nn1-c1ncccc1Cl [Example 405]
4.03

And CC(C)NC(=O)c1cc(Cl)cc(Cl)c1NC(=O)c1cc(Cn2cc(C(F)(F)F)nn2)nn1-c1ncccc1Cl [Example 200] ?
3.1

And CNC(=O)c1cc(C#N)cc(C)c1NC(=O)c1cc(Cn2nnc3c(Cl)cc(C(F)(F)F)cc32)nn1-c1ncccc1Cl [Example 98] ?
3.24

And O=C(NC1CCC1)c1cc(Cl)cc(Cl)c1NC(=O)c1cc(Cn2ncc(C(F)(F)F)n2)nn1-c1ncccc1Cl [Example 153] ?
3.56

And Cc1cc(F)cc(C(=O)NC(C)C)c1NC(=O)c1cc(Cn2ncc(C(F)(F)F)n2)nn1-c1ncccc1Cl [Example 170] ?
3.08

And Cc1cc(C#N)cc(C(=O)NC2(C3CC3)CC2)c1NC(=O)c1cc(Cn2ncc(C(F)(F)F)n2)nn1-c1ncccc1Cl [Example 281] ?
3.37

And Cc1cc(C#N)cc(C(=O)NC(C)(C)C)c1NC(=O)c1cc(Cn2ncc(C(C)C)n2)nn1-c1ncccc1Cl [Example 59] ?
3.38

And CNC(=O)c1cc(C#N)cc(C)c1NC(=O)c1cc(Cn2nnc3c(Cl)c(Cl)c(Cl)c(Cl)c32)nn1-c1ncccc1Cl [Example 92] ?
3.79
